STUDY TARGET: GRIP2_5, Q9C0E4
Sequence (Q9C0E4 544-642): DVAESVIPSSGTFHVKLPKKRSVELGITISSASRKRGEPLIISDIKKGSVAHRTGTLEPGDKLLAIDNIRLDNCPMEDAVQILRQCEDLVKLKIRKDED
ASSAY: holdup assay
Design: key: below the threshold = too weak to quantify, mostly under pKd 3.1 to 4
TEST CONDITIONS: plain residues with an end cap or a label only (N-terminal biotin on a linker: ttds)
RECORDED ENDPOINT: pKd

RHTTSTETAV [HPV30-E6, P36809]
3.75
RLPKIKETTV [FRMPD4, Q14CM0]
below the threshold
RPLPRKVSQL [DOCK4, Q8N1I0]
below the threshold
EVVHTPETSV [SLC16A3, O15427]
below the threshold

Now examine the next entry.
Challenge: In one line, give reported pKd of the entry SKPTRRETEV [HPV35-E6, P27228] .
Response given: below the threshold
